Data origin, for the record: paper PMC6930338

target: HLA-DPA1*01:03/ HLA-DPB1*04:02 (Homo sapiens, UniProt P04440+P20036, A65V/A84D/A85E/L207M); experiment: In vitro competitive peptide binding to purified MHC class II
pIC50: −log10 of the molar value. Where no end group is shown, it is not given here.
# pIC50 listing for each entry below

[
  {
    "Record Sequence": "GEKLYQEARKIVGAM [MPO413–427, reference compound]",
    "pIC50": 4.71
  },
  {
    "Record Sequence": "PVAATRTAVRAADYL [MPO105–119]",
    "pIC50": 5.21
  },
  {
    "Record Sequence": "DQERSLMFMQWGQLL [MPO245–259]",
    "pIC50": 6.04
  },
  {
    "Record Sequence": "RKIVGAMVQIITYRD [MPO447–461]",
    "pIC50": 7.13
  },
  {
    "Record Sequence": "PILRGLMATPAKLNR [MPO545–559]",
    "pIC50": 5.61
  },
  {
    "Record Sequence": "MPELTSMHTLLLREH [MPO409–423]",
    "pIC50": 6.08
  }
]
